Each entry below carries its reported Kd.
Molecular target: T1, CTD (human, UniProt O95786 792-925)
T1 sequence: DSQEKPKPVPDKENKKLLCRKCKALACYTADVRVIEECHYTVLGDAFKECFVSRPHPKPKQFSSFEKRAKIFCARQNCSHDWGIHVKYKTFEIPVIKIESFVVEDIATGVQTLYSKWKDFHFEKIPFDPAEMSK
Test: EMSA
Record the value in nM, omitting the unit from your answer.

>>> df
                                     binder  test_result
0  5'-OH 14 dsRNA (dsRNA, 5'-OH on top strand) RNA 1: ACCUCCCACCCCCG RNA 2: CGGGGGUGGGAGGU         5900

Turning to the following binder.
Entry 5'-ppp 14 dsRNA (dsRNA, 5'-triphosphate on top strand) RNA 1: ACCUCCCACCCCCG RNA 2: CGGGGGUGGGAGGU : reported Kd = ?
0.5
